Tested on: Plasmodium falciparum D6 strain
Experiment: in vitro anti-malarial activity, [3H]-ethanolamine incorporation method
Assay type: cell-based
Conditions: P. falciparum D6; read-out: IC50, anti-malarial activity
Measured property: IC50

Problem: // IC50 lookup, key: CCN(CC)CCCCCOc1ccc2c(=O)c3ccc(OCCCCCN(CC)CC)cc3oc2c1 [36-DEAAmyl-X]
Solution: ~100 nM

###

Tested on: Plasmodium falciparum D6 strain
Experiment: in vitro anti-malarial activity, [3H]-ethanolamine incorporation method
Type: cell-based
Settings: Plasmodium falciparum, D6; Table 4; cells printed in nM; 72 hour assay; read-out: IC50 μM* P. falciparum D6
Measured property: IC50

Problem: Missing value: IC50, Plasmodium falciparum D6 strain, entry CCN(CC)CCCCCOc1cccc2c(=O)c3cccc(OCCCCCN(CC)CC)c3oc12 . Fill in?
Solution: 575 nM

###

Tested on: Plasmodium falciparum D6 strain
Experiment: in vitro anti-malarial activity, [3H]-ethanolamine incorporation method
Format: cell-based
Conditions: Plasmodium falciparum, D6; Table 3; read-out: IC50 μM, P. falciparum clone D6
Measured property: IC50 (µM)
Provide the reading as a plain figure in µM.

Problem: Quick one: IC50 for O=c1c2ccccc2oc2c(O)c(O)c(O)cc12 [2,3,4-trihydroxyxanthone] ?
Solution: 40

Problem: Name the reported IC50 value associated with the compound CC(=O)Oc1cc2c(=O)c3ccc(OC(C)=O)c(OC(C)=O)c3oc2c(OC(C)=O)c1OC(C)=O
Solution: 0.075

Problem: Quick one: IC50 of O=c1c2cc(O)c(O)c(O)c2oc2c(O)c(O)c(O)cc12 [2,3,4,5,6,7-hexahydroxyxanthone] ?
Solution: 0.1

Problem: Find the recorded IC50 belonging to O=c1c2ccc(O)c(O)c2oc2c(O)c(O)c(O)cc12 [2,3,4,5,6-pentahydroxyxanthone] and report it.
Solution: 0.4

Problem: Recorded IC50 of O=c1c2ccccc2oc2cc(O)cc(O)c12 [1,3-dihydroxyxanthone] , please.
Solution: 75

Problem: For the compound O=c1c2ccc(O)c(O)c2oc2c(O)c(O)ccc12 [3,4,5,6-tetrahydroxyxanthone] , what IC50 is on record?
Solution: 5

Problem: Bench note: what IC50 did O=c1c2cccc(O)c2oc2c(O)cccc12 [4,5-dihydroxyxanthone] show?
Solution: 16

Problem: Quick one: IC50 of O=c1c2cc(O)c(O)c(O)c2oc2cc(O)cc(O)c12 [1,3,5,6,7-pentahydroxyxanthone] ?
Solution: 1

###

Assay: in vitro heme aggregation (polymerization) assay
Format: biochemical
Settings: text b143; read-out: IC50, inhibition of heme polymerization
Measured property: IC50 (µM)
Your answer should be a plain number; it is taken to be in µM.

Problem: # lookup: IC50 of O=c1c2ccc(O)c(O)c2oc2c(O)c(O)c(O)cc12 [2,3,4,5,6-pentahydroxyxanthone]
Solution: 1.2

Problem: Need IC50 of O=c1c2ccccc2oc2c(O)c(O)c(O)cc12 [2,3,4-trihydroxyxanthone] , thanks.
Solution: 16.5
